Value source: patent US9765105B2

Recorded LD50 at 7 days by entry
# PROTOCOL_TEXT: acute oral toxicity test, LD50 by improved karber method
# EXPERIMENTAL_CONDITIONS: both, Konmin, mouse, in vivo, po
Respond with the bare value in mg/kg.

Consider the reported LD50 at 7 days for these compounds:
COMPOUND	UNIT	LD50 at 7 days
CCCCNC[C@]1(O)[C@H](C)OC(O[C@@H]2[C@@H](C)[C@@H](O[C@@H]3O[C@H](C)C[C@H](N(C)C)[C@H]3O)[C@](C)(O)C[C@@H](C)NC[C@@H](C)[C@H](O)[C@](C)(O)[C@H](CC)OC(=O)[C@@H]2C)C[C@@]1(C)OC (stereo partly drawn)	mg/kg	2550
CC[C@@H]1OC(=O)[C@H](C)[C@H](OC2C[C@@](C)(OC)[C@](O)(CNC(C)C)[C@H](C)O2)[C@@H](C)[C@@H](O[C@@H]2O[C@H](C)C[C@H](N(C)C)[C@H]2O)[C@](C)(O)C[C@@H](C)NC[C@@H](C)[C@H](O)[C@]1(C)O (stereo partly drawn)	mg/kg	4200

Okay, next one:
Exam item: Which measured LD50 at 7 days value corresponds to CC[C@@H]1OC(=O)[C@H](C)[C@H](OC2C[C@@](C)(OC)[C@](O)(CNC3CC3)[C@H](C)O2)[C@@H](C)[C@@H](O[C@@H]2O[C@H](C)C[C@H](N(C)C)[C@H]2O)[C@](C)(O)C[C@@H](C)NC[C@@H](C)[C@H](O)[C@]1(C)O (stereo partly drawn) ?
Marked response: 2610

====

# System: Actinobacillus pleuropneumoniae CVCC262
# PROTOCOL_TEXT: in vitro susceptibility, MIC by mini broth dilution
# Type: cell-based
# EXPERIMENTAL_CONDITIONS: strain CVCC262
Recorded MIC values, Actinobacillus pleuropneumoniae CVCC262 by entry
Returns: string containing the numeric result and its unit.

Consider the reported MIC values, Actinobacillus pleuropneumoniae CVCC262 for these molecules:
MOLECULE	RECORDED_VALUE
CC[C@H]1OC(=O)[C@H](C)[C@@H](O[C@H]2C[C@@](C)(OC)[C@](O)(C=NNc3ccc(F)cc3)[C@H](C)O2)[C@H](C)[C@@H](O[C@@H]2O[C@H](C)C[C@H](N(C)C)[C@H]2O)[C@](C)(O)C[C@@H](C)NC[C@H](C)[C@@H](O)[C@]1(C)O	2 ug/mi
CC[C@H]1OC(=O)[C@H](C)[C@@H](O[C@H]2C[C@@](C)(OC)[C@](O)(CNCc3ccc(Cl)cc3)[C@H](C)O2)[C@H](C)[C@@H](O[C@@H]2O[C@H](C)C[C@H](N(C)C)[C@H]2O)[C@](C)(O)C[C@@H](C)NC[C@H](C)[C@@H](O)[C@]1(C)O	2 ug/mi
CC[C@H]1OC(=O)[C@H](C)[C@@H](O[C@H]2C[C@@](C)(OC)[C@](O)(CNc3ccc(F)cn3)[C@H](C)O2)[C@H](C)[C@@H](O[C@@H]2O[C@H](C)C[C@H](N(C)C)[C@H]2O)[C@](C)(O)C[C@@H](C)NC[C@H](C)[C@@H](O)[C@]1(C)O	2 ug/mi

Okay, next one:
Exam item: Which measured MIC values, Actinobacillus pleuropneumoniae CVCC262 value corresponds to CCC1OC(=O)C(C)C(OC2CC(C)(OC)C(O)(CNCc3ccc(C)o3)C(C)O2)C(C)C(OC2OC(C)CC(N(C)C)C2O)C(C)(O)CC(C)NCC(C)C(O)C1(C)O (stereo not shown) ?
Marked response: 2 ug/mi
